test system: WT Max(13-93) synthetic (M65Nle); test: PBM 8-mer E-score (E-score (rank enrichment, -0.5 to 0.5)); higher = stronger preferential binding
In all, about 33,000 sequences were measured (“E-score (rank enrichment, -0.5 to 0.5)”: median about -0.0075, highest 2% from about 0.23 on). For the sample, the highest values were picked, then their nearest neighbours and some sequences at random.
Threshold check on PBM 8-mer E-score: at or above 0.1 gives 1.0, strictly below gives 0.0.

In: Please tell me: is the sequence GATAATTA at or over 0.1 in terms of PBM 8-mer E-score?
Out: 1.0

In: Does PBM 8-mer E-score meet or surpass 0.1 for AACAATAG ?
Out: 0.0

In: Entry AACGCATC : is its PBM 8-mer E-score no less than 0.1?
Out: 0.0

In: PBM 8-mer E-score >= 0.1 for AGATCTAG ?
Out: 0.0

In: Does the sequence AATAATAA have recorded PBM 8-mer E-score that is 0.1 or more?
Out: 1.0

In: Does the sequence AGTAAACA have recorded PBM 8-mer E-score that is 0.1 or more?
Out: 1.0

In: // inclusive: PBM 8-mer E-score at least 0.1? input: GACACAAA
Out: 1.0

In: Evaluate ATCATGTC : PBM 8-mer E-score at minimum 0.1?
Out: 1.0

In: Is reported PBM 8-mer E-score greater than or equal to 0.1 here: ACAGCATA
Out: 0.0

In: API: above_or_equal(metric=PBM 8-mer E-score, cutoff=0.1) for item CACACGAC
Out: 1.0

In: Does the reported PBM 8-mer E-score for AGATAATC fall at or above the 0.1 mark?
Out: 0.0

In: Does PBM 8-mer E-score meet or surpass 0.1 for GGGGACAC ?
Out: 0.0

In: Check this sequence for PBM 8-mer E-score at or above 0.1: CGTATGGA
Out: 0.0

In: Determine whether this sequence has PBM 8-mer E-score no lower than 0.1: AAAAGTAC
Out: 1.0

In: Decide: is the reported value of PBM 8-mer E-score for ATACTCCC equal to or greater than 0.1?
Out: 0.0

In: State whether the measured PBM 8-mer E-score reaches 0.1, counting equality as reaching it, for CTATGTGC
Out: 0.0

In: Given the entry ACAAAAAA , answer whether its PBM 8-mer E-score meets or surpasses 0.1.
Out: 1.0

In: Record AACACGCA ; criterion: PBM 8-mer E-score no lower than 0.1. Met?
Out: 1.0

In: Please indicate if the recorded PBM 8-mer E-score for TGTAAACA meets or exceeds 0.1.
Out: 1.0

In: Does PBM 8-mer E-score meet or surpass 0.1 for TGAGATAA ?
Out: 1.0

In: Evaluate ACATGTCA : PBM 8-mer E-score at minimum 0.1?
Out: 1.0

In: In plain terms: is recorded PBM 8-mer E-score at least 0.1 for ACAAAAAT ?
Out: 1.0

In: Check the entry ACCAATAT : does PBM 8-mer E-score equal or exceed 0.1?
Out: 1.0

In: Determine whether this sequence has PBM 8-mer E-score no lower than 0.1: AACAATTG
Out: 1.0

In: Hi team, for AGATAACC , is the recorded PBM 8-mer E-score at or above 0.1?
Out: 0.0

In: Would you say CCATGTCA shows PBM 8-mer E-score at minimum 0.1?
Out: 0.0

In: Decide: PBM 8-mer E-score of CACACGAA >= 0.1?
Out: 1.0

In: Does CCATGTGA have a reported PBM 8-mer E-score of at least 0.1?
Out: 1.0

In: Could you tell me if the measured PBM 8-mer E-score of ACAAATGT reaches 0.1 or more?
Out: 1.0

In: Reported PBM 8-mer E-score at or above 0.1? AAAAGTAT
Out: 1.0

In: Given the entry AGAAGTAA , answer whether its PBM 8-mer E-score meets or surpasses 0.1.
Out: 1.0

In: Kindly determine if PBM 8-mer E-score recorded for CCGGCCAC is above or exactly 0.1.
Out: 0.0

In: Quick check: does CAAAGTAA have PBM 8-mer E-score greater than or equal to 0.1?
Out: 0.0

In: Dear colleague, could you confirm whether ACGAACCG has PBM 8-mer E-score at or above 0.1?
Out: 0.0

In: Please indicate if the recorded PBM 8-mer E-score for CAAGCATC meets or exceeds 0.1.
Out: 0.0

In: Hi team, for ACTAATAA , is the recorded PBM 8-mer E-score at or above 0.1?
Out: 1.0

In: Is PBM 8-mer E-score at least 0.1? Consider CATAATAG
Out: 1.0

In: Could you verify whether the entry AGGGGAAT shows PBM 8-mer E-score of no less than 0.1?
Out: 0.0

In: Does the sequence CAATCTCA have recorded PBM 8-mer E-score that is 0.1 or more?
Out: 0.0

In: Quick check, PBM 8-mer E-score >= 0.1? CGATAACG
Out: 0.0

In: Confirm if PBM 8-mer E-score reported for the sequence TACACAAA is 0.1 or above.
Out: 0.0

In: Please check the record ACAAGCAA and state if its PBM 8-mer E-score is at or above 0.1.
Out: 1.0

In: Threshold query (PBM 8-mer E-score >= 0.1) on AGATGTAG
Out: 0.0

In: # bool: PBM 8-mer E-score of AACAATTC >= 0.1
Out: 1.0

In: Kindly determine if PBM 8-mer E-score recorded for AAAGCATG is above or exactly 0.1.
Out: 1.0

In: Is PBM 8-mer E-score at least 0.1? Consider ACATGTAG
Out: 1.0

In: API: above_or_equal(metric=PBM 8-mer E-score, cutoff=0.1) for item CACACGAG
Out: 1.0

In: Determine whether this sequence has PBM 8-mer E-score no lower than 0.1: AACACGCC
Out: 0.0

In: PBM 8-mer E-score >= 0.1 for TGCCGGAA ?
Out: 0.0

In: Reported PBM 8-mer E-score reaches at least 0.1 for AGATGTAA ?
Out: 1.0

In: Given TAAAGTAA , state whether its PBM 8-mer E-score is at least 0.1.
Out: 0.0

In: In plain terms: is recorded PBM 8-mer E-score at least 0.1 for GCCTTGCC ?
Out: 0.0

In: Reported PBM 8-mer E-score reaches at least 0.1 for AAGGCGAT ?
Out: 0.0

In: Dear colleague, could you confirm whether ACAAATGA has PBM 8-mer E-score at or above 0.1?
Out: 1.0

In: Threshold query (PBM 8-mer E-score >= 0.1) on AACAATAT
Out: 1.0

In: Decide: is the reported value of PBM 8-mer E-score for CTTTTTGC equal to or greater than 0.1?
Out: 0.0

In: Evaluate CCATGTGC : PBM 8-mer E-score at minimum 0.1?
Out: 1.0

In: Is reported PBM 8-mer E-score greater than or equal to 0.1 here: GCCAACGA
Out: 0.0

In: Does AACTATTG have a reported PBM 8-mer E-score of at least 0.1?
Out: 1.0

In: Check the entry TGAAGTAA : does PBM 8-mer E-score equal or exceed 0.1?
Out: 1.0

In: Could you please find out whether ACAGCATG has PBM 8-mer E-score that meets 0.1 or exceeds it?
Out: 1.0

In: Has CGTAAAAA a recorded PBM 8-mer E-score greater than or equal to 0.1?
Out: 1.0

In: Does the reported PBM 8-mer E-score for ACAAAAAC fall at or above the 0.1 mark?
Out: 1.0

In: Confirm if PBM 8-mer E-score reported for the sequence GATAAAGC is 0.1 or above.
Out: 1.0

In: I'd appreciate it if you could say whether CGTCGAAG has PBM 8-mer E-score at least equal to 0.1.
Out: 0.0

In: Test whether the sequence TGCCCGCA records PBM 8-mer E-score of 0.1 or higher.
Out: 0.0

In: Check this sequence for PBM 8-mer E-score at or above 0.1: AAAAGTAA
Out: 1.0

In: Exam item: decide whether the reported PBM 8-mer E-score for AGTAAAAA is at least 0.1.
Out: 1.0

In: Given CAGGATAC , state whether its PBM 8-mer E-score is at least 0.1.
Out: 0.0

In: Could you please find out whether ATATGACA has PBM 8-mer E-score that meets 0.1 or exceeds it?
Out: 1.0

In: Reported PBM 8-mer E-score reaches at least 0.1 for AAATAACA ?
Out: 1.0

In: Given the entry CAGAGCGA , answer whether its PBM 8-mer E-score meets or surpasses 0.1.
Out: 0.0

In: Dear colleague, could you confirm whether CCATGTCC has PBM 8-mer E-score at or above 0.1?
Out: 0.0

In: Reported PBM 8-mer E-score reaches at least 0.1 for AACGCTCG ?
Out: 0.0

In: Could you verify whether the entry ATGGGCTA shows PBM 8-mer E-score of no less than 0.1?
Out: 0.0

In: API: above_or_equal(metric=PBM 8-mer E-score, cutoff=0.1) for item CGCACAGC
Out: 0.0

In: Would you say CAGTGAGC shows PBM 8-mer E-score at minimum 0.1?
Out: 0.0

In: Quick check: does ACAAGCAC have PBM 8-mer E-score greater than or equal to 0.1?
Out: 0.0

In: Say whether CCTAATAA shows PBM 8-mer E-score of 0.1 or more.
Out: 1.0

In: Is reported PBM 8-mer E-score greater than or equal to 0.1 here: AGATAATG
Out: 1.0

In: API: above_or_equal(metric=PBM 8-mer E-score, cutoff=0.1) for item CAATAACG
Out: 0.0

In: Item CGATGTGA with PBM 8-mer E-score of 0.1 or above?
Out: 0.0

In: Check if PBM 8-mer E-score >= 0.1 (inclusive). Item: ATCATGTG
Out: 1.0

In: Given ATCATGTA , state whether its PBM 8-mer E-score is at least 0.1.
Out: 1.0

In: Evaluate AGATAACG : PBM 8-mer E-score at minimum 0.1?
Out: 1.0

In: Does TGTAAAAA have a reported PBM 8-mer E-score of at least 0.1?
Out: 1.0

In: Test whether the sequence CGAGATGA records PBM 8-mer E-score of 0.1 or higher.
Out: 0.0

In: Decide: PBM 8-mer E-score of CAAAACCC >= 0.1?
Out: 1.0

In: Test whether the sequence CGTAGAAA records PBM 8-mer E-score of 0.1 or higher.
Out: 1.0
